System: Rhodococcus corynebacterioides
testDetails: Antimicrobial activity against Corynebacterium rubrum NCIM 2252 at 1000 ug/disk after 24 hrs by disk diffusion method
Format: functional
conditionContext: Rhodococcoides corynebacterioides, NCIM 2252, 24 h; read-out: DIZ
measurementType: zone of inhibition at 1000 µg/disc (mm)
Only the number, expressed in mm, is required.

Here is how some molecules turned out for zone of inhibition at 1000 µg/disc.
[
  {
    "molecule": "CC1(C)CC(=O)C2=C(C1)Nc1c(ccc3ccccc13)C2c1ccc(O)cc1 (centres undefined)",
    "systemName": "Rhodococcus corynebacterioides",
    "resultUnit": "mm",
    "zone of inhibition at 1000 µg/disc": 10
  },
  {
    "molecule": "O=C1CCCC2=C1C(c1ccc(Cl)cc1)c1ccc3ccccc3c1N2 (centres undefined)",
    "systemName": "Rhodococcus corynebacterioides",
    "resultUnit": "mm",
    "zone of inhibition at 1000 µg/disc": 8
  },
  {
    "molecule": "CC1(C)CC(=O)C2=C(C1)Nc1c(ccc3ccccc13)C2c1ccc(Cl)cc1 (centres undefined)",
    "systemName": "Rhodococcus corynebacterioides",
    "resultUnit": "mm",
    "zone of inhibition at 1000 µg/disc": 10
  },
  {
    "molecule": "CC1(C)CC(=O)C2=C(C1)Nc1c(ccc3ccccc13)C2c1cccc([N+](=O)[O-])c1 (centres undefined)",
    "systemName": "Rhodococcus corynebacterioides",
    "resultUnit": "mm",
    "zone of inhibition at 1000 µg/disc": 9
  },
  {
    "molecule": "CC1(C)CC(=O)C2=C(C1)Nc1c(ccc3ccccc13)C2c1cccc(Cl)c1 (centres undefined)",
    "systemName": "Rhodococcus corynebacterioides",
    "resultUnit": "mm",
    "zone of inhibition at 1000 µg/disc": 8
  }
]

Quick check: zone of inhibition at 1000 µg/disc on Rhodococcus corynebacterioides, item O=C1CCCC2=C1C(c1cccc(Cl)c1)c1ccc3ccccc3c1N2 (centres undefined) ?
9

Quick check: zone of inhibition at 1000 µg/disc on Rhodococcus corynebacterioides, item O=C1CCCC2=C1C(c1cccc([N+](=O)[O-])c1)c1ccc3ccccc3c1N2 (centres undefined) ?
8

Quick check: zone of inhibition at 1000 µg/disc on Rhodococcus corynebacterioides, item O=C1CCCC2=C1C(c1ccc(O)cc1)c1ccc3ccccc3c1N2 (centres undefined) ?
9

Quick check: zone of inhibition at 1000 µg/disc on Rhodococcus corynebacterioides, item O=C1CCCC2=C1C(c1ccccc1Cl)c1ccc3ccccc3c1N2 (centres undefined) ?
8
